Test system: P. aeruginosa ATCC 27853
PROCEDURE_SUMMARY: microbe, parasite or virus in culture
CONDITIONS: Pseudomonas aeruginosa, ATCC27853, read-out: MIC, single drug
Consider the following molecules; for each one, report its MIC.
Give bare numbers, in µg/mL.

>>> experimental_result("CNC(C)C1CCC(N)C(OC2C(N)CC(N)C(OC3OCC(C)(O)C(NC)C3O)C2O)O1 (stereo not shown)")
2
>>> experimental_result("CN[C@@H]1[C@@H](O[C@H]2O[C@H](CO)[C@@H](N)[C@H](O)[C@H]2O)OC2C[C@@H](N)[C@@H](O[C@H]3[C@H](O)[C@@H](O)[C@H](N)C[C@@H]3N)OC2[C@@H]1O (stereo partly shown)")
16

Here is another molecule to look at.
Which MIC value belongs to O=C(O)CN(CCN(CC(=O)O)CC(=O)O)CC(=O)O ?
3800

###

Consider the following compounds; for each one, report its MIC.
Test system: S. aureus ATCC 29213
PROCEDURE_SUMMARY: MIC broth microdilution, quality control strain
Type: cell-based
CONDITIONS: Staphylococcus aureus, ATCC29213; S. aureus ATCC 29213, quality control strain
Answers are plain numbers, in µg/mL.

>>> experimental_result("CC1(C)S[C@@H]2[C@H](NC(=O)[C@H](N)c3ccccc3)C(=O)N2[C@H]1C(=O)O")
1
>>> experimental_result("CN[C@@H]1[C@@H](O[C@H]2O[C@H](CO)[C@@H](N)[C@H](O)[C@H]2O)OC2C[C@@H](N)[C@@H](O[C@H]3[C@H](O)[C@@H](O)[C@H](N)C[C@@H]3N)OC2[C@@H]1O (stereo partly shown)")
4
>>> experimental_result("N=C(N/N=C/c1ccc(Cl)cc1)N/N=C/c1ccc(Cl)cc1")
2

Look up MIC with S. aureus ATCC 29213 for this compound: CNC(C)C1CCC(N)C(OC2C(N)CC(N)C(OC3OCC(C)(O)C(NC)C3O)C2O)O1 (stereo not shown)
0.5

###

Tested on: E. coli ATCC 25922
PROCEDURE_SUMMARY: microbe, parasite or virus in culture
CONDITIONS: Escherichia coli, ATCC25922, read-out: MIC, single drug
Description: The MIC for ampicillin or gentamicin against each isolate was determined for each test to serve as an internal quality control. The MICs of isolates were determined by visual reading and using an EnSpire Multimode Plate Reader 2300 atA600nm. Briefly, antimicrobial stock solutions for robenidine and PMBN were prepared at a concentration of 12.8 mg/ml in DMSO. […]
ASSAY_ENDPOINT: MIC

>>> experimental_result("CNC(C)C1CCC(N)C(OC2C(N)CC(N)C(OC3OCC(C)(O)C(NC)C3O)C2O)O1 (centres unmarked) [Gentamicin, gentamicin]")
"0.5 µg/mL"
>>> experimental_result("CN[C@@H]1[C@@H](O[C@H]2O[C@H](CO)[C@@H](N)[C@H](O)[C@H]2O)OC2C[C@@H](N)[C@@H](O[C@H]3[C@H](O)[C@@H](O)[C@H](N)C[C@@H]3N)OC2[C@@H]1O (some centres unmarked) [Apramycin, apramycin]")
"8 µg/mL"
>>> experimental_result("CC1(C)S[C@@H]2[C@H](NC(=O)[C@H](N)c3ccccc3)C(=O)N2[C@H]1C(=O)O [Ampicillin, ampicillin]")
"4 µg/mL"
>>> experimental_result("N=C(N/N=C/c1ccc(Cl)cc1)N/N=C/c1ccc(Cl)cc1 [ROB, robenidine]")
"> 256 µg/mL"

Which MIC value belongs to O=C(O)CN(CCN(CC(=O)O)CC(=O)O)CC(=O)O [EDTA, ethylenediaminetetraacetic acid] ?
3800 µg/mL
